These entries and their values trace back to patent US8563542B2.

molecular target: PLK1 (Homo sapiens); test: PLK1 protein kinase assay (CDC25C phosphorylation, [γ-32P]-ATP); assay type: biochemical; conditions: Table 2, PLK1 IC50; class symbols; read-out: PLK1 IC50
Sequence (P53350 whole entry): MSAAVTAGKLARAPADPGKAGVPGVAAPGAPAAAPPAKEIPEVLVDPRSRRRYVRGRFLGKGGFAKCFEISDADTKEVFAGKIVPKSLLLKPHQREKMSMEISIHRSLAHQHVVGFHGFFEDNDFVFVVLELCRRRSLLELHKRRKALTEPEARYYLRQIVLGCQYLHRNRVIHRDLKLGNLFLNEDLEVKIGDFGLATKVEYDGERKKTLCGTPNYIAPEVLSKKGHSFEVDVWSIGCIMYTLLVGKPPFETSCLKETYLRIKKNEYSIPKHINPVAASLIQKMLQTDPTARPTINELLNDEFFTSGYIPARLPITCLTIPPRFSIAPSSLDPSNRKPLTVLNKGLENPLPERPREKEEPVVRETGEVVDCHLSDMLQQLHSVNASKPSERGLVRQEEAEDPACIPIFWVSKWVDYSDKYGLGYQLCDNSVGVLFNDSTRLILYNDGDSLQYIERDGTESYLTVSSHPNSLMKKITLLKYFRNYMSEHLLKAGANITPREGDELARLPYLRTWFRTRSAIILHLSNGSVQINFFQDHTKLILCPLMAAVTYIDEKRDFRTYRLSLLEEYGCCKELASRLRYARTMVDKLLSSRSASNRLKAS
pIC50: −log10 of the molar value.
Catalogue of pIC50 readings, one per entry.

| Chemical smiles | Tested system | pIC50 |
| --- | --- | --- |
| COc1cc(C(=O)NC2CC(C)(C)N(C)C(C)(C)C2)ccc1Nc1ncc2c(n1)N(c1ccccc1OC)CCC(=O)N2C | PLK1 (Homo sapiens) | > 5.00 |
| CNC(=O)c1cccc(Nc2ncc3c(n2)N(C2CCCC2)CCC(=O)N3C)c1C | PLK1 (Homo sapiens) | > 5.00 |
| CONC(=O)c1ccc(Nc2ncc3c(n2)N(C2CCCC2)CC2(CC2)C(=O)N3C)c(OC)c1 | PLK1 (Homo sapiens) | > 7.00 |
| COc1cc(C(=O)NC2CCN(C3CCOCC3)CC2)ccc1Nc1ncc2c(n1)N(C1CCCC1)CCC(=O)N2C | PLK1 (Homo sapiens) | > 7.00 |
| CN1C(=O)C2(CC2)CN(C2CCCC2)c2nc(Nc3ccc4c(c3)CS(=O)(=O)C4)ncc21 | PLK1 (Homo sapiens) | > 6.00 |
| COc1cc(C(=O)NC2CCN(C)CC2)ccc1Nc1ncc2c(n1)N(C1CCCC1)CC1(CC1)C(=O)N2C | PLK1 (Homo sapiens) | > 7.00 |
| CN1C(=O)CCN(C2CCCC2)c2nc(Nc3ccc(CCC(=O)O)cc3)ncc21 | PLK1 (Homo sapiens) | > 5.00 |
| COc1ccc(C(=O)NCCCCO)cc1Nc1ncc2c(n1)N(C1CCCC1)CCC(=O)N2C | PLK1 (Homo sapiens) | > 6.00 |

* * *

biological target: AA (Homo sapiens); assay: AA IC50 (Table 1; no method given); assay type: biochemical; settings: Table 2, AurA IC50; class symbols; read-out: AurA IC50
Sequence (O14965 whole entry): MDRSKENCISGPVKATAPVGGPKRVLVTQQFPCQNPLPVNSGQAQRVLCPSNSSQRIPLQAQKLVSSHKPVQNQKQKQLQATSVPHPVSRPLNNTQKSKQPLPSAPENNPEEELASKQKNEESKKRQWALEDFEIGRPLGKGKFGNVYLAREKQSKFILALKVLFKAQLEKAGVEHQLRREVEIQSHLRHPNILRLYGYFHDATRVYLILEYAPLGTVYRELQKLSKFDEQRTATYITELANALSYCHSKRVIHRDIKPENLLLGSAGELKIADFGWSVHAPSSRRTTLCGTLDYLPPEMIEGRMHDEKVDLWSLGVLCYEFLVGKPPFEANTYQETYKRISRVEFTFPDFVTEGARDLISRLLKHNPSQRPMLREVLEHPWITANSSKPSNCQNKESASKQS
Catalogue of IC50 readings, one per entry.

| Compound | IC50 |
| --- | --- |
| COc1ccccc1N1CCC(=O)N(C)c2cnc(Nc3ccc4c(c3)CS(=O)(=O)C4)nc21 [compound 133] | < 1000 nM |
| CC(Cc1c[nH]c2ccccc12)Nc1ncc2c(n1)N(C1CCCC1)CCC(=O)N2C (centres unmarked) [compound 175] | < 10000 nM |
| CC(=O)NCc1ccc(Nc2ncc3c(n2)N(C2CCCC2)CCC(=O)N3C)cc1 [compound 86] | < 100 nM |
| CC1CN(C2CCCC2)c2nc(Nc3ccc4c(c3)CS(=O)(=O)C4)ncc2N(C)C1=O (centres unmarked) [compound 76] | < 100 nM |
| CN1C(=O)CCN(C2CCCC2)c2nc(Nc3ccc4cc[nH]c4c3)ncc21 [compound 130] | < 1000 nM |
| CN1C(=O)C2(CCC2)CN(C2CCCC2)c2nc(Nc3ccc4c(c3)CS(=O)(=O)C4)ncc21 [compound 117] | < 1000 nM |
| COc1ccc(N2CCC(=O)N(C)c3cnc(Nc4ccc(NC(=O)C5CC5)c(C)c4)nc32)cc1 [compound 327] | < 100 nM |
| Cc1cc(C(=O)O)ccc1Nc1ncc2c(n1)N(C1CCCC1)CCC(=O)N2C [compound 174] | < 10000 nM |
| CCN1C(=O)CCN(c2ccc(C)cc2)c2nc(Nc3ccc4c(c3)CS(=O)(=O)C4)ncc21 [compound 331] | < 100 nM |
| CN(C)C(=O)c1ccc(Nc2ncc3c(n2)N(C2CCCC2)CCC(=O)N3C)cc1 [compound 85] | < 100 nM |
| COc1cccc(N2CCC(=O)N(C)c3cnc(Nc4ccc(C(=O)O)cc4)nc32)c1 [compound 49] | < 10000 nM |
| COc1cccc(N2CCC(=O)N(C)c3cnc(Nc4ccc5c(c4)CS(=O)(=O)C5)nc32)c1 [compound 136] | < 1000 nM |
| CN1C(=O)CCN(c2ccccc2F)c2nc(Nc3ccc4c(c3)CS(=O)(=O)C4)ncc21 [compound 73] | < 100 nM |
| CN1C(=O)CCN(C2CCCC2)c2nc(Nc3cccc(CN)c3)ncc21 [compound 91] | < 1000 nM |
| CCC1CN(C2CCCC2)c2nc(Nc3ccc4c(c3)CS(=O)(=O)C4)ncc2N(C)C1=O (centres unmarked) [compound 74] | < 100 nM |
| CN1C(=O)CCN(C2CCCC2)c2nc(Nc3ccc(S(N)(=O)=O)cc3)ncc21 [compound 63] | < 100 nM |
| Cc1ccc(N2CCC(=O)N(C)c3cnc(Nc4ccc5c(c4)CS(=O)(=O)C5)nc32)cc1 [compound 290] | < 100 nM |
| CN1C(=O)CCN(C2CCCC2)c2nc(Nc3ccc4c(c3)OCC(=O)N4)ncc21 [compound 294] | < 1000 nM |
| CN1C(=O)CCN(c2ccccc2Cl)c2nc(Nc3ccc4c(c3)CS(=O)(=O)C4)ncc21 [compound 135] | < 1000 nM |
| CN1C(=O)CCN(C2CCCC2)c2nc(Nc3ccc4sc(C(=O)O)cc4c3)ncc21 [compound 296] | < 100 nM |
| CN1C(=O)C2(CC2)CN(C2CCCC2)c2nc(Nc3ccc4[nH]ncc4c3)ncc21 [compound 227] | < 1000 nM |
| CN1C(=O)CCN(C2CCCC2)c2nc(Nc3cccc(CN4CCS(=O)(=O)CC4)c3)ncc21 [compound 177] | < 100 nM |
| CN1C(=O)C(C)(C)CN(C2CCCC2)c2nc(Nc3ccc4c(c3)CS(=O)(=O)C4)ncc21 [compound 77] | < 1000 nM |
| CN1C(=O)CCN(C2CCCC2)c2nc(NCc3ccc(-c4csnn4)cc3)ncc21 [compound 132] | < 10000 nM |
| CCN1C(=O)CCN(c2ccc(C)cc2)c2nc(Nc3ccc(NC(=O)C4CC4)c(C)c3)ncc21 [compound 328] | < 10000 nM |
| CN1CCC(NC(=O)c2ccc(Nc3ncc4c(n3)N(C3CCCC3)CCC(=O)N4C)cc2)CC1 [compound 64] | < 100 nM |
| CN1C(=O)CCN(C2CCCC2)c2nc(Nc3cccc(S(=O)(=O)N4CCCC4)c3)ncc21 [compound 109] | < 1000 nM |
| CN1C(=O)CCN(C2CCCC2)c2nc(Nc3ccc(S(=O)(=O)N4CCOCC4)cc3)ncc21 [compound 47] | < 100 nM |
| CN1C(=O)CCN(C(C)(C)C)c2nc(Nc3ccc(C(=O)O)cc3)ncc21 [compound 43] | < 1000 nM |
| COc1cccc(Nc2ncc3c(n2)N(C2CCCC2)CCC(=O)N3C)c1 [compound 138] | < 1000 nM |
| CN1C(=O)CCN(C2CCCC2)c2nc(NCc3ccco3)ncc21 [compound 124] | < 10000 nM |
| CN1C(=O)CCN(C2CCCC2)c2nc(NCc3cccc4c3OCCO4)ncc21 [compound 128] | < 10000 nM |
